pIC50: −log10 of the molar value.
Assay system aurora B-INCENP enzyme (Homo sapiens); read-out recorded as pIC50.
QUANTITY_NAME: pIC50

> print(dat)
                                   compound  experimental.result
1  CCOc1cc(OC[C@H]2CCCN2C)c2c(Nc3cnn(CC(=O)Nc4cccc(F)c4F)c3)ncnc2c1 [Compound 1]                 9.30
2  CCOc1cc(OC[C@H]2CCCN2)c2c(Nc3cnn(CC(=O)Nc4cccc(F)c4F)c3)ncnc2c1 [Compound 2]                 9.30

----------
# Test system: SW620 human colon tumour cells
# TEST_DESCRIPTION: In vitro cell phenotype and substrate phosphorylation assay (phosphohistone H3 levels)
# Format: cell-based
# ASSAY_CONTEXT: SW-620, 24 hours of treatment, read-out: IC50 (inhibition of phosphohistone H3 levels)
# Protocol: (c) In Vitro Cell Phenotype and Substrate Phosphorylation Assay This assay is used to determine the cellular effects of compounds on SW620 human colon tumour cells in vitro. Compounds typically cause inhibition of levels of phosphohistone H3 and an increase in the nuclear area of the cells. […] The next day, the antibody was tipped off and the plates were washed twice with PBS. […] 100 μl PBS was added to each well and the plates were sealed ready to analyse. […]
pIC50: −log10 of the molar value.
QUANTITY_NAME: pIC50

> print(dat)
                                 mol.smiles  experimental.result
1  CCOc1cc(OC[C@H]2COCCN2)c2c(Nc3cnn(CC(=O)Nc4cccc(F)c4F)c3)ncnc2c1                 8.70

a. CCOc1cc(OC[C@H]2CCCN2)c2c(Nc3cnn(CC(=O)Nc4cccc(F)c4F)c3)ncnc2c1
b. CCOc1cc(OC[C@H]2CCCN2C)c2c(Nc3cnn(CC(=O)Nc4cccc(F)c4F)c3)ncnc2c1
Higher pIC50: a or b ? Give the chosen item's label as your response.
a

Every entry's value here was drawn from patent US20080194556A1.
